system: K4 kissing-loop RNA reporter; assay: apparent KD of K4 kissing-loop reporter; higher = weaker reporter binding; settings: Eterna round: R107; input ligand: FMN 200 uM;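 also: bound reporter read as fluorescence of individual clusters on recovered sequencing chips by microscopy, with normalized cluster intensities fitted with a binding model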
Exercise: for every item that follows, state its recorded apparent KD of K4 kissing-loop reporter.
Give your result as the value with the unit written after it.

Short answer for CUUGGAAGGACGGCCGCCACUCGACGGAGUGAUGUUCCGUGUGGGUAGCGCAGUGAUGUUGUGUCGAGGACCGGGUCCUAGGAAU [Exclusion Tryptophan B GF 28] : apparent KD of K4 kissing-loop reporter was 181 nM

apparent KD of K4 kissing-loop reporter for GAUAUAGUGAUGUUAUAUACUGAUAGACAACGAGGACCGGUACGGCCGCCACUCGAGAGGGUGAAAAUGGUGAUAAAAUAAUGAU [#03 K4 Tryptophan A Exclusion] is 349 nM

Sure, the documented apparent KD of K4 kissing-loop reporter for ACGCGCGUGCGCUGGAAAGCGCACGCGCGUCGAGGACCGGUACGGCCGCCACUCGCUCGCGCCGAGUGAUGUUCGGCCGGCGAAC [#2 SameState - Tryptophan_A Attempt #2 (HarryS)] is 342 nM

The sequence UGGACCGCCUGAGGAUAUAGGGACGAGUGAUGUUCGUGGACCAGAGCCAGUGAUGUUGGGUUAUUUCUAGAAGGCGGGCGAACUU [Exclusion FMN B GF11] showed apparent KD of K4 kissing-loop reporter equal to 120 nM

# apparent KD of K4 kissing-loop reporter (sequence: UAACUGCAGUGAUGUUGCAGAUGUCCUGACUAGGAUAUCAGGAAACUGAGAAGGAGUCCCUUCUACUGCAACAAGAAGGAGGACA [[K1]-[K2]-[F1]'-[F1]-[F2]-[F2]'-[K]'-[F]''_Design2] ) is 396 nM

---

test system: MS2 coat protein; assay: apparent KD of MS2 coat protein; designed switch direction (-1 OFF switch, 1 ON switch): -1; higher = weaker reporter binding; conditions: input ligand: none
For each of the sequences below, state its apparent KD of MS2 coat protein.
State just the number; it will be interpreted in nM.

Form: item GUCGCUUUUUGUUUGUUUUACAUGAGGAUCACCCAUGUACGUUGGUUACAAUAAAGUUCCGUGGCGGAUCAAUCUGA [Eternabot (L1) Solution 12] (Eterna round: R97, puzzle: Sensor, turn-off variant 1) ; test system MS2 coat protein; apparent KD of MS2 coat protein: 28.2

Record UGCAGACGAGGAUAUAGAUUUAAGUACAUGAGGAUCACCCAUGUACACAUGUAUUUAGAUUUAGAAGGCGUCUGCU [E5/17-A4] (Eterna round: R97, puzzle: Exclusion 5) has MS2 coat protein apparent KD of MS2 coat protein equal to 1210

Measured apparent KD of MS2 coat protein for this entry UAAUAUCUGUAGGAUAUCAGUGGAGAACACGUAUGAGAAGGGCAGACAUGAGGAUCACCCAUGUAUAGGGUCCG [BotMod 6 - Jieux - Exclusion 6] (Eterna round: R97, puzzle: Exclusion 6) on MS2 coat protein: 20.2

MS2 coat protein apparent KD of MS2 coat protein of AGCUAGUCAGGAUAUACAAACAUGUCAAAAGACGUGAAGAGACAUGAGGAUCACCCAUGUAGAAGGGACUAGCA [Mat - Exclusion 2 - JL mod - D13] (Eterna round: R96, puzzle: Exclusion 2) is 22.9

Result for UGUUGUCGCGUAGGAUAUGUAUGAGGAUCACCCAUAAGAGUAUAUUUACCAUGAGGAUCACCCAUGUAGAAGGACGGGACAACU [pwkr exNG2 2xF5 1xFMN.12] (Eterna round: R96, puzzle: Exclusion NG 2) , tested on MS2 coat protein, apparent KD of MS2 coat protein: 127

Here GAGGCCAUAGGAUAUCUGUUACGGGACAUGAGGAUCACCCAUGUACUGGCAAGUCCUCGGAGAGAAGGAUGACUCU [Eternabot (L1) Solution 68] (Eterna round: R97, puzzle: Exclusion 5) was tested on MS2 coat protein, and its apparent KD of MS2 coat protein came to 18.3

Let me check: AUCCUUAACAAGGAUAUCGGGCGGGAAAUUGUUUGAGAAGGUGUAACAUGAGGAUCACCCAUGUAAAAUAUGAA [-14.9, -13.5 kcal, A 36%] (Eterna round: R97, puzzle: Exclusion 6) , system MS2 coat protein, measured apparent KD of MS2 coat protein is 31.2

Assay MS2 coat protein, sample AGGUCAUUAGGAUAUGUCGAAUAUGACAUGAGGAUCACCCAUGUGGUAGGCAUGUCGUAGACAGAAGGAGUGUAAA [Laqureis] (Eterna round: R97, puzzle: Exclusion 5) , apparent KD of MS2 coat protein read: 75.9

With MS2 coat protein as the test system, GUCAGCUCGUGAGGAUAUGCACAUGAGGAUCACCCAUGUAAGAUCAAGCUGCUUCGGCAGCAAGUGCAGAAGGCACGAGCUGAU [ENG2/9-A3] (Eterna round: R96, puzzle: Exclusion NG 2) showed apparent KD of MS2 coat protein of 210
